Provenance of the data: ChEMBL document CHEMBL1157775

PROCEDURE_DETAILS: Intrinsic clearance in dog liver microsomes assessed per mg of protein
Format: ADME, Canis lupus familiaris, Microsome
MEASURED_PARAMETER: microsomal CLint (µL/min/mg)
Quick reminder: number only, in µL/min/mg, skip the unit.

Req: State the recorded microsomal CLint for this entry: Cc1ncnc(C)c1C(=O)N1C[C@H]2CN(CC[C@H](NC(=O)CC3CCC(F)(F)CC3)c3ccccc3)C[C@H]2C1
Resp: 30

###

PROCEDURE_DETAILS: Clearance in rat at 1 mg/kg, iv
Format: ADME, organism-based
Set-up: dose 1 mg/kg, route intravenous
CONDITION_DETAILS: in vivo
MEASURED_PARAMETER: clearance

* Cc1ncnc(C)c1C(=O)N1C[C@H]2CN(CC[C@H](NC(=O)C3CCCC3)c3ccccc3)C[C@H]2C1 | 131 mL/min/kg
* Cc1cccc(C)c1C(=O)N1C[C@H]2CN(CC[C@H](NC(=O)C3CCCC3)c3ccccc3)C[C@H]2C1 | 134 mL/min/kg
* Cc1ncnc(C)c1C(=O)N1C[C@H]2CN(CC[C@H](NC(=O)CC3CCC(F)(F)CC3)c3ccccc3)C[C@H]2C1 | 99 mL/min/kg

Attention now shifts to the item below.
Req: Endpoint output: clearance of Cc1ccnc(C)c1C(=O)N1C[C@H]2CN(CC[C@H](NC(=O)C3CCCC3)c3ccccc3)C[C@H]2C1 . Value?
Resp: 151 mL/min/kg
